- system tested: T1, human mature TGFβ1 (Homo sapiens, UniProt P01137)
- T1 construct: Transforming Growth Factor-beta 1, human, mature form (cut from the precursor); also called TGFb1; source: bought: PeproTech
- T1 sequence (P01137 279-390): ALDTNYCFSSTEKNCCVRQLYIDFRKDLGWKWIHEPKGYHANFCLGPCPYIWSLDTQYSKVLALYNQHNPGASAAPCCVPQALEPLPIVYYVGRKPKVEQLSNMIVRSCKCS
- test name: SPR; Biacore T200; antibody captured on a Protein A sensor chip (about 90 RU); mature TGFβ isoform injected, five-fold dilutions 0.008 nM to 5 nM; HBS-EP pH 7.4, 150 mM NaCl; 37 °C; 100 μl/min; 3 min association, 60 min dissociation; one-to-one Langmuir model, global fit
- cond: both partners purified
quantity measured: Kd

Incoming: # query: Kd of entry h4A11.v7.5 (antibody, V domains shown, as the VH of m12 (h4A11.v7); numbers count on: Kabat numbering of the heavy chain; as the VL of m12 (h4A11.v7); human IgG1; also called v7.5_S19R, S79W, K81Q; source: Expi293F, transient, purified (Protein A, SEC)) VH: EQQLQESGPGLVKPSETLRLTCTVTGFSLSSYTVNWVRQPAGKGLEWIGYISYGGSAYYASWANGRFTISKDSSKNQVWLQLSSVTAADTAVYFCARHMQVGGAPTGSMAAFDPWGPGTLVTVSS VL: EAVLTQSPGTLSLSPGERATLSCQSSQSVYNNNYLSWFQQKPGQPPRLLIYGASTLTSGVPDRFSGSGSGTDFTLTISRLEPEDFAVYYCAGGYSGSSDKYAFGGGTKVEIK
Outgoing: > 5 nM
